Cited source: patent US5661147A

- TARGET OR SYSTEM: PDE V (cGMP-specific PDE) (Canis lupus familiaris, UniProt O77746)
- Construct: purified from canine tracheal smooth muscle; from tissue; host or cells: canine tracheal smooth muscle
- ASSAY PROTOCOL: Inhibitory activity on PDE V purified from canine tracheal smooth muscle (Test Example 1)
- Assay type: biochemical
- ASSAY CONDITIONS: 1 nM; 1.0 μM [3H]cGMP substrate; read-out: PDE Inhibitory activity, PDE V, Percent inhibition
Structures can show the parent of a compound that is named as a salt.
Each entry below lists one item and its recorded inhibition at 0.001 µM value.
PROPERTY MEASURED: inhibition at 0.001 µM (%)

>>> print(df.to_string())
                                   molecule                          target_or_system       property_measured  observed
0  CCn1c(=O)[nH]c2cc3c(NCc4ccc(F)c(F)c4)ncnc3cc21 [Compound 20, hydrochloride]  PDE V (cGMP-specific PDE) (Canis lupus familiaris, UniProt O77746)  inhibition at 0.001 µM        69
1  CCn1c(=S)[nH]c2cc3c(NCc4ccncc4)ncnc3cc21.Cl.Cl [Compound 47, dihydrochloride]  PDE V (cGMP-specific PDE) (Canis lupus familiaris, UniProt O77746)  inhibition at 0.001 µM        91
2  CCn1c(=S)[nH]c2cc3c(NCc4cccc(C(F)(F)F)c4)ncnc3cc21 [Compound 54, hydrochloride]  PDE V (cGMP-specific PDE) (Canis lupus familiaris, UniProt O77746)  inhibition at 0.001 µM        96
3  CCn1c(=S)[nH]c2cc3c(NCc4cccc(OC)c4)ncnc3cc21 [Compound 51, hydrochloride]  PDE V (cGMP-specific PDE) (Canis lupus familiaris, UniProt O77746)  inhibition at 0.001 µM        97
4  CCCn1c(=S)[nH]c2cc3c(NCc4ccccc4)ncnc3cc21  PDE V (cGMP-specific PDE) (Canis lupus familiaris, UniProt O77746)  inhibition at 0.001 µM        94
5  CCn1c(=O)[nH]c2cc3c(NCc4cccc(OC)c4)ncnc3cc21 [Compound 15, hydrochloride]  PDE V (cGMP-specific PDE) (Canis lupus familiaris, UniProt O77746)  inhibition at 0.001 µM        67
